Where do the numbers come from? From ChEMBL document CHEMBL6109084.

Entries and their Activity
System: Plasma
protocol: Anticoagulant activity in citrated human plasma assessed as prolongation of activated partial thromboplastin time at 1 uM incubated for 3 mins by aPTT reagent based automated coagulometric analysis relative to control
Type: functional
recordedConditions: 0.05 h

compound: COc1ccc(Cn2cc(OC)c(-c3cc(Cl)ccc3-n3cnnn3)cc2=O)cc1-c1ccc(N)nc1
Activity (%): 50.4
//
compound: COc1cn(C(C)c2cccc(-c3ccncc3)c2)c(=O)cc1-c1cc(Cl)ccc1-n1cnnn1 (centres undefined)
Activity (%): 80.1
//
compound: COc1cn(C(C)c2ccc(F)c(-c3ccc(N)nc3)c2)c(=O)cc1-c1cc(Cl)ccc1-n1cnnn1 (centres undefined)
Activity (%): 14.8
//
compound: CC[C@H](c1cc(-c2ccc(N)nc2)ccn1)n1cc(OC)c(-c2cc(Cl)ccc2-n2cnnn2)cc1=O
Activity (%): 59.6
